inhibition values, listed per item
- Test system: HIV-1 integrase (with human LEDGF/p75)
- method_notes: blockers of LEDGF/p75-dependent integrase strand transfer – biochemical, TR-FRET, high throughput, primary screen (AID 743269);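 note: signal is the Cy5 over europium emission ratio at 671 and 618 nm; 0% = plate median of compound wells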
- experimental_setup: TR-FRET IN-LEDGF/p75 DNA integration, Eu/Cy5; at 3.7 µM; stronger effect = higher value
Hit rate of the full screen: of about 370,000 compounds, about 2,400 (0.65%) were called active. What follows is part of a selection rich in actives, with near analogues and random picks from the rest.
measure: inhibition (%)

* O=C(Nc1ccccc1F)c1ccccc1-c1ccccc1 | -1.52
* CN(C(=O)COC(=O)c1cc(=O)[nH]c2ccccc12)C1CCCCC1 | -9.3
* Cc1ccc(-n2c(COc3ccccc3)nnc2SCC(=O)Nc2ccc3c(c2)OCCO3)cc1 | -2.45
* Cc1cccc(C(=O)Nc2c(-c3ccc(F)cc3)nc3ncccn23)c1 | 1.19
* C[C@H](NC(=O)c1ccccc1Cl)C(=O)OCC(=O)N1CCN(c2ccccc2)CC1 | 1.43
* Cc1ccc(OCc2nnc(SC/C=C/c3ccccc3)n2Cc2ccco2)cc1 | 1.59
* CN(C(=O)COC(=O)c1cc(-c2ccco2)nc2ccccc12)C1CCS(=O)(=O)C1 (stereo not given) | 30.7
* COC(=O)C[C@@H]1CC[C@@H]2[C@@H](COc3ccc(NC(=O)Nc4ccc(F)c(F)c4)cc3C(=O)N2C)O1 | 0.03
* Cc1c[nH]c2cccc(-c3ccc(Cl)cc3)c12 | 4.29
* Cc1nc(CNc2ncnc3ccc(-c4ccc5c(c4)OCO5)cc23)cs1 | -1.03

---

- System: HIV-1 integrase (with human LEDGF/p75)
- method_notes: blockers of LEDGF/p75-dependent integrase strand transfer – biochemical, TR-FRET, high throughput, primary screen (AID 743269);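 note: signal is the Cy5 over europium emission ratio at 671 and 618 nm; 0% = plate median of compound wells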
- experimental_setup: TR-FRET IN-LEDGF/p75 DNA integration, Eu/Cy5; at 3.7 µM; stronger effect = higher value
The campaign covered roughly 370,000 compounds. About 2,400 (0.65%) were called active. Only a selection was taken, and actives are over-represented in it overall.
measure: inhibition (%)

- CCOC(=O)N1CCN(C(=O)C[C@H]2C[C@@]3(C(=O)OC)C(=C[C@H](C(C)(C)C)O[C@@H]3C)N(Cc3ccc(Cl)cc3Cl)C2=O)CC1: -2.55
- CC1(OC(=O)C2CCCC2)C(=O)C=C2C=C(c3ccc(C#N)cc3)OC=C2C1=O (centres undefined): 13.4
- CCOC(=O)[C@]12CCCC=C1N(Cc1ccc(OC)cc1)C(=O)[C@@H]2CC(=O)NCc1cccs1: 0.74
- CCN(CC)CCCC(C)n1c2nc(=O)[nH]c(=O)c-2nc2cc(Cl)ccc21 (centres undefined): 19.5
- CC(C(=O)Nc1ccc(S(=O)(=O)N2CCCC2)cc1)N(C)Cc1ccc(F)cc1 (centres undefined): -5.41
- Cc1cc2nc3c(=O)[nH]c(=O)nc-3n(C[C@H](O)[C@H](O)[C@H](O)CO)c2cc1C: -0.23
- O=C(OCC(=O)N1CCN(c2ccccc2)CC1)c1ccc([N+](=O)[O-])s1: 16.4
- O=S(=O)(c1cc(Cl)ccc1Cl)N1CCN(Cc2ccco2)CC1: -3.53
- CC1(C(=O)NS(=O)(=O)c2ccc(C#N)cc2)CCN1C(=O)c1ccc(C2CCCCC2)cc1 (centres undefined): -1.93
- COc1ccc(C(=O)/C=C/c2ccc(-c3ccccc3)cc2)cc1CSCC(=O)O: 13.5
- CC(C)(C)c1ccc(C(=O)Nc2cc(Cl)c(Br)cc2C(=O)O)cc1: 5.86
- CC(C)CNc1cccc2c1S(=O)(=O)N(Cc1cn(Cc3ccccc3C(F)(F)F)nn1)Cc1ccccc1O2: -0.84
- CCc1ccc(CN(C)C(C)C(=O)Nc2ccc(S(=O)(=O)N3CCCC3)cc2)cc1 (centres undefined): -3.86
- COc1ccc(C(C)=O)cc1CSc1nc2nc(C)cc(C)n2n1: -4
- CCOC(=O)[C@]12CCCCC/C=C\1N(Cc1ccc(OC)cc1)C(=O)[C@H]2CC(=O)NCc1ccc(C)o1: -2.04
- COc1ccc(CN2C/C(=C/c3ccccc3)N3C(=O)C[C@@H](c4ccccc4)N=C23)c(OC)c1: -1.46
- CC(C(=O)Nc1ccccc1-c1ccccc1)N1CCOCC1 (centres undefined): -2.51
- O=C(CSc1nc2ccccc2n1Cc1ccccc1Cl)N/N=C\c1c[nH]c2ccccc12: 5.76
- CC[C@@H](CCC(=O)N(c1ccccc1)c1ccccc1)C1CC1: -0.47
